# assayed.system: FAD-linked sulfhydryl oxidase ALR (Homo sapiens) (UniProt P55789)
# Sequence (P55789 whole entry, looked up): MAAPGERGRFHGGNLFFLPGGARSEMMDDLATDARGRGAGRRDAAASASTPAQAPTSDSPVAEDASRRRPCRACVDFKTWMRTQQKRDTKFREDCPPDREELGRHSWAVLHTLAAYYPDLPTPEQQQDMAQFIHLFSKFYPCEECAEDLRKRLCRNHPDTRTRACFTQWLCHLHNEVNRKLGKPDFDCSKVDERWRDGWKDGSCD
# protocol.description: ALR-catalysed DTT oxidation blockers – biochemical, H2O2 detection, HRP-luminol luminescence, single point, primary screen (AID 485317)
# conditions.used: purified ALR, concentration not given here
Out of some 290,000 compounds screened, about 11,000 (3.8%) were called active.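 The calls were made as follows: active = mean replicate inhibition above about 79%, with every replicate also reaching it (limit read from the data); inconclusive = only one of the two criteria met; inactive = mean below limit and not every replicate reaching it.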 This excerpt belongs to a sample that is enriched for actives.
Classes used: active, inactive

compound: COc1ccccc1NC(=O)/C=C/C(=O)O
class.assignment: inactive

compound: Cc1ccccc1N1CC(C(=O)Nc2ccc(S(=O)(=O)N3CCCC3)cc2)CC1=O (stereo not drawn)
class.assignment: inactive

compound: Cc1cccc(N2CC(C(=O)Nc3ccccc3N3CCCC3)CC2=O)c1C (stereo not drawn)
class.assignment: active

compound: CCN(CC(=O)Nc1ccc(OC)cc1)C(=O)CSCc1ccc(C)cc1
class.assignment: inactive

compound: COc1ccc(Br)cc1/C=N/Nc1ccc(Cl)c(C(=O)O)c1
class.assignment: active

compound: COc1ccc(CCNC(=O)COC(=O)c2cnc(Cl)c(Cl)c2)cc1
class.assignment: inactive

compound: Cc1nc(-c2ccc([N+](=O)[O-])cc2)c(-c2ccccc2)o1
class.assignment: active

compound: CSc1ncccc1C(=O)NCC(c1ccco1)N1CCCCC1 (stereo not drawn)
class.assignment: inactive

compound: O=C(CC(n1cncn1)C(Cl)(Cl)Cl)c1ccc([N+](=O)[O-])cc1 (stereo not drawn)
class.assignment: inactive

compound: COc1ccc(S(=O)(=O)N2CCOC23CCN(S(=O)(=O)c2ccc([N+](=O)[O-])cc2)CC3)cc1
class.assignment: inactive

compound: COC(=O)[C@@]12CCCN1[C@H](c1ccc(-c3ccc(F)cc3)c(OC)c1)[C@H]1C(=O)N(C)C(=O)[C@H]12
class.assignment: inactive

compound: Cc1cc(NC(=O)CCS(=O)(=O)c2ccc(F)cc2)no1
class.assignment: inactive

compound: NC(=O)c1ccccc1NC(=O)c1ccccc1F
class.assignment: inactive

compound: COc1ccc(Br)cc1/C=N/NC(=O)c1cccc(S(=O)(=O)N2CCOCC2)c1
class.assignment: inactive

compound: COc1ccc(Br)cc1/C=N/n1c(C)nnc1C
class.assignment: inactive

compound: Cc1cc(=O)oc2cc(NC(=O)C(C)Oc3ccccc3)ccc12 (stereo not drawn)
class.assignment: inactive

compound: Cc1cc(C(=O)OCC(=O)N2C(C)CCCC2C)c2ccccc2n1 (stereo not drawn)
class.assignment: inactive

compound: COc1ccc([N+](=O)[O-])cc1-c1nc2ccccc2nc1-c1ccccc1
class.assignment: inactive

compound: Cc1c(NC(=O)CSCc2ccccc2)cccc1C(=O)O
class.assignment: inactive

compound: COc1ccc(OC)c(Nc2nc(-c3ccc(O)c(O)c3)cs2)c1
class.assignment: active

compound: COc1ccc(C(=O)N(Cc2ccccc2)c2ccc(C)cc2)cc1S(=O)(=O)N1CCOCC1
class.assignment: inactive

compound: O=C(O)/C=C/C(=O)Nc1ccc(F)cc1F
class.assignment: inactive

compound: COc1cc(C(=O)NCC(c2ccco2)N2CCCC2)ccc1OCc1ccccc1 (stereo not drawn)
class.assignment: inactive

compound: C=CCC[C@H](Cc1ccc(F)cc1)C(=O)OC[C@@H](Cc1c[nH]c2ccccc12)NC(=O)[C@H](CC=C)CC(=O)N[C@H](CO)Cc1ccccc1
class.assignment: inactive

compound: O=C(CCNC(=O)c1ccc(Br)cc1)NCC(c1ccco1)N1CCCCC1 (stereo not drawn)
class.assignment: inactive

compound: Cc1ccccc1N1CC(C(=O)Nc2ccc3c(c2)OCO3)CC1=O (stereo not drawn)
class.assignment: inactive

compound: CC(=O)c1c(C)[nH]c(C(=O)COC(=O)c2cccs2)c1C
class.assignment: inactive

compound: O=C(Nc1ccccc1N1CCCC1)c1ccc2ccccc2c1
class.assignment: active

compound: O=C(c1ccc(NS(=O)(=O)c2ccc3[nH]c(=O)[nH]c3c2)cc1)N1CCCCC1
class.assignment: inactive

compound: Cc1ccccc1NC(=O)CNc1ccccc1N1CCCCC1
class.assignment: active

compound: O=C(Nc1ccccc1N1CCCC1)c1ccc(F)c(S(=O)(=O)N2CCOCC2)c1
class.assignment: inactive

compound: c1ccc(Nc2nc(N3CCOCC3)c3ccccc3n2)cc1
class.assignment: inactive

compound: O=C(Nc1ccccc1N1CCCCC1)c1ccc2nccnc2c1
class.assignment: inactive

compound: Cc1ccc(Cc2nnc(SCC(=O)Nc3ccccc3C)[nH]c2=O)cc1
class.assignment: inactive

compound: COC(=O)c1ccccc1NC(=S)NC(=O)c1ccccc1F
class.assignment: active

compound: Cc1ccccc1NC(=O)CSC1=NCCN1
class.assignment: active

compound: COc1cc(C(C)=O)ccc1OC(C)C(=O)Nc1ccc(S(=O)(=O)N2CCCC2)cc1 (stereo not drawn)
class.assignment: inactive

compound: Cc1cccc(NC(=O)c2sc(-c3ccccc3)nc2-c2ccc([N+](=O)[O-])cc2)c1
class.assignment: inactive

compound: CN(C)c1ccc(-n2cccc2/C=N/n2cnnc2)cc1
class.assignment: active

compound: COC(=O)c1ccc(/C=C/c2c(-c3ccc(OC)cc3)sc3ccccc23)cc1
class.assignment: inactive

compound: COc1cc2ccccc2cc1C(=O)Nc1nc(C)c(C(C)=O)s1
class.assignment: inactive

compound: COC(=O)c1ccccc1NC(=O)c1ccccc1NS(C)(=O)=O
class.assignment: inactive

compound: C[C@H](CO)N1C[C@H](C)[C@@H](CN(C)S(=O)(=O)c2ccc(F)cc2)Oc2ccc(NC(=O)CCC(F)(F)F)cc2C1=O
class.assignment: inactive
